As shown below, each of these molecules has a reported viability at 48 h, 10 µM value.
assay: Cell viability (survival) assay with CellTiter-Glo, 48 hours; assay type: cell-based, mouse; conditions: mouse, B16F10 melanoma tumor cells; 10 uM, 48 hours, normalized to DMSO-treated control cells
Give just the numeric value; % need not be written.

Would you please look over these solved cases?
1) COc1cc([C@@H]2c3cc4c(cc3[C@@H](O[C@@H]3O[C@@H]5CO[C@@H](C)O[C@H]5[C@H](O)[C@H]3O)[C@H]3COC(=O)[C@H]23)OCO4)cc(OC)c1O [Etop, etoposide] | 34.9
2) O=C1c2c(O)ccc(O)c2C(=O)c2c(NCCNCCO)ccc(NCCNCCO)c21 [Mito, mitoxantrone] | 0.0743
3) COc1cccc2c1C(=O)c1c(O)c3c(c(O)c1C2=O)C[C@@](O)(C(=O)CO)C[C@@H]3O[C@H]1C[C@H](N)[C@H](O)[C@H](C)O1 [Dox, doxorubicin] | 0.505

Now for the molecule whose viability at 48 h, 10 µM we want.
Recorded viability at 48 h, 10 µM for O=c1[nH]cc(F)c(=O)[nH]1 [5-FU, 5-fluorouracil] , please?
49
